Assay: in vivo
Details: rat, plasma, 0.03 mg, Plasma Level, Mean, nasal, 30 μg/rat, 20 min, mean of 3 rats
Metric: concentration at 20 min (ng/mL)
Your answer is read as ng/mL, so omit the unit and give the number.

Looking up "C=CCN1CC[C@]23c4c5ccc(O)c4O[C@H]2C(=O)CC[C@@]3(O)[C@H]1C5" , I see its concentration at 20 min listed as 19.5

----------
Test: in vivo
Settings: rat, plasma, iv, 0.03 mg, Area under the blood level curve (AUC ^.infin.0), 30 μg/rat, individual rats I, II, III
Metric: AUC(0-inf) (ng·h/mL)
Your answer is read as ng·h/mL, so omit the unit and give the number.

Looking up C=CCN1CC[C@]23c4c5ccc(O)c4O[C@H]2C(=O)CC[C@@]3(O)[C@H]1C5 [naloxone] , I see its AUC(0-inf) listed as 21.2
